Source: patent US7550495B2

Test Protocol: Metabolic stability assay in rat liver microsomes
Type: in vitro ADME
Protocol Conditions: pH 7.4, 37° C., read-out: rCLint
Tick MET if microsomal CLint at 1.6 µM is 10 µL/min/mg or greater. Tick NOT MET if microsomal CLint at 1.6 µM is less than 10 µL/min/mg.

Past entries and their recorded results:
CC(C)(C)c1nc2cc(NS(=O)(=O)C(C)(C)C)ccc2n1CC1CCC(F)(F)CC1
MET
CCS(=O)(=O)Nc1ccc2c(c1)nc(C(C)(C)C)n2CC1CCC(F)(F)CC1
MET
CC(C)(C)c1nc2cc(NS(C)(=O)=O)ccc2n1CC1CCC(F)(F)CC1
MET
CC(F)(F)c1nc2cc(NS(=O)(=O)C3CC3)ccc2n1CC1CCC(F)(F)CC1
NOT MET
CCCS(=O)(=O)Nc1ccc2c(c1)nc(C(C)(C)C)n2CC1CCC(F)(F)CC1
NOT MET
CC(F)(F)c1nc2cc(NS(=O)(=O)C(C)(C)C)ccc2n1CC1CCC(F)(F)CC1
NOT MET

Turning to the following compound.
Request: Determine whether measured microsomal CLint at 1.6 µM meets or exceeds 10 µL/min/mg for CCS(=O)(=O)Nc1ccc2c(c1)nc(C(C)(C)C)n2CC1CCC(F)CC1 (centres unmarked)
Result: MET

---

Target: Human CB1 receptor (Homo sapiens)
Sequence (P21554 whole entry): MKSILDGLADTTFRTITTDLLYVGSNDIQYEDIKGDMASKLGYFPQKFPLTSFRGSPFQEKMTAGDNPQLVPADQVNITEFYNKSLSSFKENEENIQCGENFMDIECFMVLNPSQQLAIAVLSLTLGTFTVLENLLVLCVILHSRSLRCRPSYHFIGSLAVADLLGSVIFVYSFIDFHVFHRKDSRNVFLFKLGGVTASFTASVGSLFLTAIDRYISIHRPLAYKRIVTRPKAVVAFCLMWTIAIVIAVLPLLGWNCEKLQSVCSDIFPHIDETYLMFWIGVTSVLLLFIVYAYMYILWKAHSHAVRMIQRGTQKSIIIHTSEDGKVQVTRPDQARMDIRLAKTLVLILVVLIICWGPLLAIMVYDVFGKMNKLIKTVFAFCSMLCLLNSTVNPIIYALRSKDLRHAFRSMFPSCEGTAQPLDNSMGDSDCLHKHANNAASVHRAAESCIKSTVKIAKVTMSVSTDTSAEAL
Test Protocol: hCB1 GTPγS binding
Experimental Readout: EC50 (nM)
Numbers only, in nM.

Request: Provide only the value of recorded EC50 for CCS(=O)(=O)Nc1ccc2c(c1)nc(C(C)(C)C)n2CC1CCC(F)CC1 (single isomer, unassigned) [Isomer B]
Result: 4.9

---

Test Protocol: Assay condition for measuring solubility
Format: physicochemical
Protocol Conditions: thermodynamic from solid; aqueous, sodium phosphate buffer pH 7.4, 24 h, 25° C.
For each entry below, report its solubility at 24 h value.
Write your answer as a measured quantity: the number, then the unit.

CCS(=O)(=O)Nc1ccc2c(c1)nc(C(C)(C)C)n2CC1CCC(F)(F)CC1
7.36 µM

Value sought for every listed compound: solubility at 24 h.
1. CC(F)(F)c1nc2cc(NS(=O)(=O)C(C)(C)C)ccc2n1CC1CCC(F)(F)CC1
2. CCCS(=O)(=O)Nc1ccc2c(c1)nc(C(C)(C)C)n2CC1CCC(F)(F)CC1
3. CC(C)(C)c1nc2cc(NS(C)(=O)=O)ccc2n1CC1CCC(F)(F)CC1
4. CC(C)(C)c1nc2cc(NS(=O)(=O)C3CC3)ccc2n1CC1CCC(F)(F)CC1
5. CC(F)(F)c1nc2cc(NS(=O)(=O)C3CC3)ccc2n1CC1CCC(F)(F)CC1

Result:
1. 0.51 µM
2. 3.79 µM
3. 4.3 µM
4. 5.93 µM
5. 51.9 µM

Please supply solubility at 24 h for each of the following items, keeping them in order.
1. CC(C)(C)c1nc2cc(NS(=O)(=O)C3CC3)ccc2n1CC1CCC(F)CC1 (stereo not shown)
2. CC(C)(C)c1nc2cc(NS(=O)(=O)C(C)(C)C)ccc2n1CC1CCC(F)CC1 (stereo not shown)
3. CCS(=O)(=O)Nc1ccc2c(c1)nc(C(C)(C)C)n2CC1CCC(F)CC1 (stereo not shown)
4. CC(C)(C)c1nc2cc(NS(=O)(=O)C(C)(C)C)ccc2n1CC1CCC(F)(F)CC1

Result:
1. 233 µM
2. 154 µM
3. 353 µM
4. 0.61 µM
